The values you see were collected from patent US10105357B2.

Kindly supply the reported viability at 10 µM values for the records listed here.
Tested on: A375 (Amelanotic Melanoma)
Assay: Cell viability analysis, skin cancer A375
Type: cell-based, human
Settings: Homo sapiens, A-375, 72 h, read-out: cell viability (survival rate), A375, drug 10 μM, 72 hours, WST-1, OD450 nm
Structures can show the parent of a compound that is named as a salt.
API: value field is a number in %; no unit string.

Query string: Value lookup for viability at 10 µM; key = CN(C)c1ccc(C(=C2C=CC(=[N+](C)C)C=C2)c2ccc(N(C)C)cc2)cc1 [Crystal violet]
Result string: 32

Query string: Similarly, CN1CCN(c2c(F)cc3c(=O)c(C(=O)O)cn4c3c2OCN4C)CC1 [Marbofloxacin] ?
Result string: 86.8

Query string: Next compound up: Cc1cccc(C)c1OCC(=O)N[C@@H](Cc1ccccc1)[C@@H](O)C[C@H](Cc1ccccc1)NC(=O)[C@H](C(C)C)N1CCCNC1=O [Lopinavir (ABT-378), Lopinavir]
Result string: 83.1

Query string: Further, for CO[C@H]1/C=C/O[C@@]2(C)Oc3c(C)c(O)c4c(c3C2=O)C2=NC3(CCN(CC(C)C)CC3)NC2=C(NC(=O)/C(C)=C\C=C\[C@H](C)[C@H](O)[C@@H](C)[C@@H](O)[C@@H](C)[C@H](OC(C)=O)[C@@H]1C)C4=O [Rifabutin (Mycobutin), Rifabutin] ?
Result string: 84

Query string: Then what about the compound CO[C@@]1(NC(=O)C(C(=O)O)c2ccc(O)cc2)C(=O)N2C(C(=O)O)=C(CSc3nnnn3C)CO[C@@H]21 (some centres unmarked) [Moxalactam Disodium] ?
Result string: 80.8

Query string: Could you do the same for CC[C@H]1OC(=O)[C@H](C)[C@@H](O[C@H]2C[C@@](C)(OC)[C@@H](O)[C@H](C)O2)[C@H](C)[C@@H](O[C@@H]2O[C@H](C)C[C@H](N(C)C)[C@H]2O)[C@](C)(O)C[C@@H](C)CN(C)[C@H](C)[C@@H](O)[C@]1(C)O [Azithromycin Dihydrate] , please?
Result string: 50.8

Query string: Can you check Cc1cccc(C(C)c2cnc[nH]2)c1C (centres unmarked) [Medetomidine HCl] next?
Result string: 59.7

Query string: Another compound: C[C@H]1[C@H](NC(=O)/C(=N\OC(C)(C)C(=O)O)c2csc(N)n2)C(=O)N1S(=O)(=O)O [Aztreonam (Azactam, Cayston), Aztreonam]
Result string: 88.6

Query string: Consider next the compound O=C(NC(Cc1cc(=O)[nH]c2ccccc12)C(=O)O)c1ccc(Cl)cc1 (centres unmarked) [Rebamipide] in the same way.
Result string: 81.1

Query string: Cool, now CC(=O)S[C@@H]1CC2=CC(=O)CC[C@]2(C)[C@H]2CC[C@@]3(C)[C@@H](CC[C@@]34CCC(=O)O4)[C@H]12 [Spironolactone]
Result string: 61

Query string: How about CC[C@H]1OC(=O)[C@H](C)[C@@H](O[C@H]2C[C@@](C)(OC)[C@@H](O)[C@H](C)O2)[C@H](C)[C@@H](O[C@@H]2O[C@H](C)C[C@H](N(C)C)[C@H]2O)[C@](C)(O)C[C@@H](C)[C@@H]2N[C@@H](COCCOC)O[C@H]([C@H]2C)[C@]1(C)O [Dirithromycin] ?
Result string: 83.7
